tested on: HCC1428; test: -log10 GI50 (growth inhibition 50%) (-log10(M)); higher = more potent growth inhibition
-log10 GI50 values for the molecules below.

>  <molecule>
O=C(O)C(=O)O.[NH-][C@@H]1CCCC[C@H]1[NH-].[Pt+2] [Oxaliplatin]

>  <relation>
=

>  <-log10 GI50>
5.09

$$$$
>  <molecule>
CO[C@H]1C[C@@H]2CC[C@@H](C)[C@@](O)(O2)C(=O)C(=O)N2CCCC[C@H]2C(=O)O[C@H]([C@H](C)C[C@@H]2CC[C@@H](OC(=O)C(C)(CO)CO)[C@H](OC)C2)CC(=O)[C@H](C)/C=C(\C)[C@@H](O)[C@@H](OC)C(=O)[C@H](C)C[C@H](C)/C=C/C=C/C=C/1C [Temsirolimus]

>  <relation>
=

>  <-log10 GI50>
5.25

$$$$
>  <molecule>
CO[C@H]1C[C@@H]2CC[C@@H](C)[C@@](O)(O2)C(=O)C(=O)N2CCCC[C@H]2C(=O)O[C@H]([C@H](C)C[C@@H]2CC[C@@H](O)[C@H](OC)C2)CC(=O)[C@H](C)/C=C(\C)[C@@H](O)[C@@H](OC)C(=O)[C@H](C)C[C@H](C)/C=C/C=C/C=C/1C [Rapamycin]

>  <relation>
=

>  <-log10 GI50>
7.29

$$$$
>  <molecule>
CC(C)C[C@@H](C=O)NC(=O)[C@H](CC(C)C)NC(=O)[C@H](CC(C)C)NC(=O)OCc1ccccc1 [MG-132]

>  <relation>
=

>  <-log10 GI50>
6.46

$$$$
>  <molecule>
Cc1cc(Nc2cc(N3CCN(C)CC3)nc(Sc3ccc(NC(=O)C4CC4)cc3)n2)n[nH]1 [VX-680]

>  <relation>
=

>  <-log10 GI50>
5.11

$$$$
>  <molecule>
Cc1cc(C(=O)N2CCN(c3cccc(Cl)c3)CC2)n(-c2ccccc2)n1 [XRP44X]

>  <relation>
=

>  <-log10 GI50>
5.85

$$$$
>  <molecule>
CCN(CC)CCNC(=O)c1c(C)[nH]c(/C=C2\C(=O)Nc3ccc(F)cc32)c1C [Sunitinib malate]

>  <relation>
=

>  <-log10 GI50>
5.29

$$$$
>  <molecule>
CC(/C=C/C(=O)NO)=C\[C@@H](C)C(=O)c1ccc(N(C)C)cc1 [Trichostatin A]

>  <relation>
=

>  <-log10 GI50>
5.73

$$$$
>  <molecule>
O=C(c1ccc(Nc2nccc(-c3cc4ccccc4s3)n2)cc1)N1CCC(N2CCCC2)CC1 [IKK 16]

>  <relation>
=

>  <-log10 GI50>
5.4

$$$$
>  <molecule>
CC[C@H](CO)Nc1nc(NCc2ccccc2O)c2ncn(C(C)C)c2n1 [Olomoucine II]

>  <relation>
=

>  <-log10 GI50>
5.29

$$$$
>  <molecule>
O=C(O)c1ccc(-c2c[nH]c3ncc(-c4ccccc4)cc23)cc1C1CCCC1

>  <relation>
<

>  <-log10 GI50>
4.18

$$$$
>  <molecule>
N#Cc1c(-c2ccccc2)cc(-c2cc(Br)ccc2O)[nH]c1=O [TCS PIM-11]

>  <relation>
=

>  <-log10 GI50>
4.09

$$$$
>  <molecule>
CC/C(=C(\c1ccccc1)c1ccc(OCCN(C)C)cc1)c1ccccc1 [Tamoxifen]

>  <relation>
=

>  <-log10 GI50>
5.49

$$$$
>  <molecule>
NS(=O)(=O)c1ccc(Nc2nc(OCC3CCCCC3)c3[nH]cnc3n2)cc1 [NU6102]

>  <relation>
=

>  <-log10 GI50>
4.87

$$$$
>  <molecule>
CCN(CC)C(=S)SSC(=S)N(CC)CC [Disulfiram]

>  <relation>
=

>  <-log10 GI50>
4.97

$$$$
>  <molecule>
O=C1C(Cl)=C(NCCN2CCOCC2)C(=O)c2ncccc21

>  <relation>
=

>  <-log10 GI50>
5.44

$$$$
>  <molecule>
CC(=O)NCC(=O)N1[C@@H]2CC[C@H]1c1ccc(Nc3ncc(C(F)(F)F)c(NC4CCC4)n3)cc12

>  <relation>
=

>  <-log10 GI50>
5.37

$$$$
>  <molecule>
CCNCCCNC/C=C\CNCCCNCC

>  <relation>
=

>  <-log10 GI50>
3.74

$$$$
>  <molecule>
COC1=C2C[C@@H](C)C[C@H](OC)[C@H](O)[C@@H](C)/C=C(\C)[C@H](OC(N)=O)[C@@H](OC)/C=C\C=C(/C)C(=O)NC(=CC1=O)C2=O [Geldanamycin]

>  <relation>
=

>  <-log10 GI50>
7.55

$$$$
>  <molecule>
O=C1c2ccccc2-[n+]2ccc3c([nH]c4ccccc43)c21 [Fascaplysin]

>  <relation>
=

>  <-log10 GI50>
7.43

$$$$
>  <molecule>
COc1ncc(-c2ccc3nccc(-c4ccnnc4)c3c2)cc1NS(=O)(=O)c1ccc(F)cc1F

>  <relation>
=

>  <-log10 GI50>
7.57

$$$$
>  <molecule>
COc1ccc(-c2cc3c(C)nc(N)nc3n([C@H]3CC[C@H](OCCO)CC3)c2=O)cn1

>  <relation>
=

>  <-log10 GI50>
6.51

$$$$
>  <molecule>
CN(C)C/C=C/C(=O)Nc1cc2c(Nc3ccc(F)c(Cl)c3)ncnc2cc1O[C@H]1CCOC1 [BIBW2992]

>  <relation>
=

>  <-log10 GI50>
5.76

$$$$
>  <molecule>
C=CCNC1=C2C[C@@H](C)C[C@H](OC)[C@H](O)[C@@H](C)/C=C(\C)[C@H](OC(N)=O)[C@@H](OC)/C=C\C=C(/C)C(=O)NC(=CC1=O)C2=O [17-AAG]

>  <relation>
=

>  <-log10 GI50>
8.39

$$$$
>  <molecule>
Cc1ccc(NC(=O)c2ccc(CN3CCN(C)CC3)cc2)cc1Nc1nccc(-c2cccnc2)n1 [Imatinib]

>  <relation>
=

>  <-log10 GI50>
4.8

$$$$
>  <molecule>
O=C(O)C1(C(=O)O)CCC1.[NH2-].[NH2-].[Pt+2] [Carboplatin]

>  <relation>
=

>  <-log10 GI50>
3.86

$$$$
>  <molecule>
COc1ccc(C2=N[C@@H](c3ccc(Cl)cc3)[C@@H](c3ccc(Cl)cc3)N2C(=O)N2CCNC(=O)C2)c(OC(C)C)c1 [Nutlin 3a]

>  <relation>
=

>  <-log10 GI50>
4.5

$$$$
>  <molecule>
CC(=O)O[C@H]1C(=O)[C@@]2(C)[C@H]([C@H](OC(=O)c3ccccc3)[C@]3(O)C[C@H](OC(=O)[C@H](O)[C@@H](NC(=O)c4ccccc4)c4ccccc4)C(C)=C1C3(C)C)[C@]1(OC(C)=O)CO[C@@H]1C[C@@H]2O [Paclitaxel]

>  <relation>
=

>  <-log10 GI50>
7.58

$$$$
>  <molecule>
CC(=O)O[C@@]12CO[C@@H]1C[C@H](O)[C@@]1(C)C(=O)[C@H](O)C3=C(C)[C@@H](OC(=O)[C@H](O)[C@@H](NC(=O)OC(C)(C)C)c4ccccc4)C[C@@](O)([C@@H](OC(=O)c4ccccc4)[C@H]21)C3(C)C [Docetaxel]

>  <relation>
=

>  <-log10 GI50>
7.77

$$$$
